- measured-target: T1, AtRCD1-RST(499–572) (Arabidopsis thaliana, UniProt Q8RY59 499-572)
- T1 construct: RST domain of Radical-Induced Cell Death1 (RCD1), Arabidopsis thaliana, residues 499-572; also called AtRST(499–572); Arabidopsis RST domain
- T1 sequence (looked up): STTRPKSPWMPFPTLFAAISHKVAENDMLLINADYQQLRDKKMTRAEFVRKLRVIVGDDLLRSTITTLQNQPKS
- test-protocol: ITC; ANAC087(315–335) in the syringe (100–300 µM) titrated into the RST domain in the cell (10–30 µM); 25 °C; 50 mM Hepes, pH 7.4, 100 mM NaCl; one set of sites model
- condition-parameters: both partners purified
outcome-measure: Kd (µM)
All answers are understood in µM, so give the number only.

Briefly, Kd measured for MVNGSKSYEDLCDLRGDLWDF (peptide, UniProt Q9FK44 315-335, looked up, NAC transcription factor ANAC087, Arabidopsis thaliana, AT5G18270, residues 315-335) [ANAC087(315–335)] : 1.75
